# credit: PubChem BioAssay (NCI)

As shown below, each of these compounds has a reported growth value.
Tested on: MDA-MB-231 breast
Test: NCI-60 one-dose screen, 48 h (100 = growth as untreated, 0 = no growth, -100 = all killed)
Details: 10 µM unless noted
The panel holds about 83,000 compounds, 20% with a hit somewhere; the sample as a whole holds those more often.
// return numeric value only (unit: %, not printed)

Answered cases to consult:
C(=N\Nc1nc(N/N=C/c2ccc3c(c2)OCO3)nc(N2CCCCC2)n1)/c1ccc2c(c1)OCO2 | 90.7
Cc1ccc(Nc2nc(SC(C)C)nc(-c3ccccc3)c2C#N)cc1 | 82.1
COc1cc(C(C)=C(c2ccc(OCCN(C)C)cc2)c2ccc(OCCN(C)C)cc2)ccc1F | 102
COC(=O)[C@@H](Cc1c[nH]c2ccccc12)NC(=O)CCCCOc1cc(O)c2c(=O)cc(-c3ccccc3)oc2c1 | 81.7
O=c1oc2ccc(-c3ccc(F)cc3F)cc2c(=O)n1-c1ccc(Br)cc1F | 87

What value of measured growth is listed for CNC(=O)c1cc(Oc2ccc3c(c2)sc2nc(-c4ccc(N(C)C)cc4)cn23)ccn1 ?
15.9

What value of measured growth is listed for C[C@H]1OCC2(CCN(c3cnc(C(=O)Nc4cc(F)cc5cccnc45)cn3)CC2)[C@H]1N ?
31.6

---

Tested on: UO-31 renal
Test: NCI-60 one-dose screen, 48 h
Conditions: 10 µM unless noted
Protocol: Growth inhibition of the UO-31 human tumor cell line is measured as a screen for anti-cancer activity. Cells are grown in 96 well plates and exposed to the test compound for 48 hours. Compounds are tested at a single concentration, which is 10^-5 M for most compounds. The reported endpoint is percent growth (GI% or GIPRCNT), where numbers from 0 - 100% represent growth inhibition, and numbers from -100% - 0 represent cell death. For example, a value of 40 represents 60% growth inhibition. […]
This is part of a sample that, as a whole, favours compounds with a hit. Of some 83,000 tested, about 20% had one in any assay. Activity calls are given as the source filed them. How the source made its calls: active means growth percent below 10; inactive means the rest.
I would appreciate it if you answered using one of these outcomes: active, inactive

COc1cccc(N2CCN(C3=C(Cl)C(=O)c4ncccc4C3=O)CC2)c1 | inactive

Check the results log: what was the call for CC1(C)CC[C@]2(C(=O)NCCCCCCN(CCCN)CCCN)CC[C@]3(C)C(=CC[C@@H]4[C@@]5(C)CC[C@H](O)C(C)(C)[C@@H]5CC[C@]43C)[C@@H]2C1 ?
inactive

Check the results log: what was the call for CCCC[n+]1ccc(SCC(=O)n2ccc3ccccc32)c2ccccc21 ?
inactive

Check the results log: what was the call for CC1CC(=O)C2=C(C1)Nc1ccc(Br)cc1CC2c1c[nH]c2ccc(Br)cc12 (stereo unspecified) ?
inactive

Check the results log: what was the call for CCC(=C(c1ccc(OCCN2CCCCCC2)cc1)c1ccc(OCCN2CCCCCC2)cc1)c1ccc(Cl)cc1 ?
inactive

Check the results log: what was the call for CCNC(=O)Oc1ccc(/C(=C(/C)c2ccc(Cl)cc2)c2ccc(OCCN3CCCCCC3)cc2)cc1 ?
active

Check the results log: what was the call for NCCNC(=O)c1cccc(COc2ccccc2NC(=O)c2cc(Cl)c(Cl)[nH]2)c1 ?
inactive

Check the results log: what was the call for C#C[C@]1(O)CC[C@H]2[C@@H]3CC=C4c5sc(Nc6ccc(C)cn6)nc5CC[C@]4(C)[C@H]3CC[C@@]21C ?
active
